biological target: cKIT (Homo sapiens); test: Kinase inhibition assay (ELISA); assay type: biochemical; settings: 60 µM ATP
Sequence (P10721 26-976): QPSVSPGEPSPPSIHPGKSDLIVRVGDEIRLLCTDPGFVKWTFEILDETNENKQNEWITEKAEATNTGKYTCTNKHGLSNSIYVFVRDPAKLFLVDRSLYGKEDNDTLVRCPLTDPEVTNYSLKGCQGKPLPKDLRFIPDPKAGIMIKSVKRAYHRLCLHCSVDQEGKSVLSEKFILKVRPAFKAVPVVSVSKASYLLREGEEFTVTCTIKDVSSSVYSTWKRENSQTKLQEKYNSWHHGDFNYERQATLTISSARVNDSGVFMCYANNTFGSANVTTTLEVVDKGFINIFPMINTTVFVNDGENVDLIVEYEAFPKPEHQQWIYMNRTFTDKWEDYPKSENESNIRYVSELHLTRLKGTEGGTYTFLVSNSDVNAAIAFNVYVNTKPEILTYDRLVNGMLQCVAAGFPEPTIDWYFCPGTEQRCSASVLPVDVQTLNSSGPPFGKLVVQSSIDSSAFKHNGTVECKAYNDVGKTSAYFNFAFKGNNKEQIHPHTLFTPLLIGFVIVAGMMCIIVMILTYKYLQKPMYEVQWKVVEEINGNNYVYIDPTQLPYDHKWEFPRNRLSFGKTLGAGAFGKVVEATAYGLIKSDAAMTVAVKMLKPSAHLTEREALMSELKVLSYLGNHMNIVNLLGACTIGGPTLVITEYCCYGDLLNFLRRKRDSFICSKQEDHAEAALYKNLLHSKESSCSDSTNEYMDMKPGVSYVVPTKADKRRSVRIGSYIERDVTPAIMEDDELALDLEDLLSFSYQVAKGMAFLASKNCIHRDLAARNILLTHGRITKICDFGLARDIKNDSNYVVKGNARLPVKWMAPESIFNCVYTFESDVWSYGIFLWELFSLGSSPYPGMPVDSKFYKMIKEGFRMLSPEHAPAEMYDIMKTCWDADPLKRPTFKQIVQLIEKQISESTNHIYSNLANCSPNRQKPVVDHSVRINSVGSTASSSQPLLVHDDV
Measured IC50 accompanies every entry in the list below.

Recorded IC50, per entry:
[
  {
    "molecule": "CNC1CCC(Cc2ccnc(Nc3ncc(-c4ccc(F)cc4)s3)c2)CC1 (centres unmarked)",
    "IC50": "< 10 nM"
  },
  {
    "molecule": "CC(=O)N1CCC(Cc2ccnc(Nc3ncc(-c4ccc(F)cc4)s3)c2)CC1",
    "IC50": "< 10 nM"
  },
  {
    "molecule": "OCCN1CCC(c2ccnc(Nc3ncc(-c4cc(F)cc(F)c4)s3)c2)CC1",
    "IC50": "> 10 nM"
  },
  {
    "molecule": "CS(=O)(=O)N1CCC(Cc2ccnc(Nc3ncc(-c4ccc(F)cc4)s3)c2)CC1",
    "IC50": "> 10 nM"
  },
  {
    "molecule": "Fc1ccc(-c2cnc(Nc3cc(CC4CCC5CNCC54)ccn3)s2)cc1 (centres unmarked)",
    "IC50": "< 10 nM"
  }
]

I am curious: what IC50 value has been reported for Fc1ccc(-c2cnc(Nc3cccc(CC4COC5(CCNCC5)C4)n3)s2)cc1 (centres unmarked) ?
> 10 nM

I am curious: what IC50 value has been reported for `OCCN1CCC(CO)(c2cccc(Nc3ncc(-c4ccccc4)s3)n2)CC1` ?
> 100 nM

I am curious: what IC50 value has been reported for `OCCN1CCC(c2cccc(Nc3ncc(-c4ccnc(Cl)c4)s3)n2)CC1` ?
> 10 nM

I am curious: what IC50 value has been reported for c1ccc(-c2cnc(Nc3cc(CC4CCNC4)ccn3)s2)cc1 (centres unmarked) ?
> 10 nM

I am curious: what IC50 value has been reported for `OCCN1CCC(c2ccnc(Nc3ncc(-c4ccc(F)cc4)s3)c2)CC1` ?
< 10 nM

I am curious: what IC50 value has been reported for `OCCN1CCC(c2ccnc(Nc3ncc(-c4ccccc4F)s3)c2)CC1` ?
< 10 nM

I am curious: what IC50 value has been reported for CC(=O)N1CCOCC(Cc2ccnc(Nc3ncc(-c4ccc(F)cc4)s3)c2)C1 (centres unmarked) ?
> 10 nM

I am curious: what IC50 value has been reported for OCCN1CCOCC(Cc2ccnc(Nc3ncc(-c4ccc(F)cc4)s3)c2)C1 (centres unmarked) ?
> 10 nM

I am curious: what IC50 value has been reported for `Fc1ccc(-c2cnc(Nc3cc(CC4CNCCNC4)ccn3)s2)cc1` ?
< 10 nM

I am curious: what IC50 value has been reported for CN1CCCC(Cc2cccc(Nc3ncc(-c4ccc(F)cc4)s3)n2)CC1 (centres unmarked) ?
> 10 nM

I am curious: what IC50 value has been reported for Fc1ccc(-c2cnc(Nc3cc(CC4CNCCOC4)ccn3)s2)cc1 (centres unmarked) ?
< 10 nM

I am curious: what IC50 value has been reported for Fc1ccc(-c2cnc(Nc3cc(CC4CCCC5CNCC54)ccn3)s2)cc1 (centres unmarked) ?
< 10 nM

I am curious: what IC50 value has been reported for `Fc1ccc(-c2cnc(Nc3cc(CC4CCNCC4)ccn3)s2)cc1` ?
< 10 nM

I am curious: what IC50 value has been reported for c1ccc(-c2cnc(Nc3cc(CCC4CCCN4)ccn3)s2)cc1 (centres unmarked) ?
> 100 nM

I am curious: what IC50 value has been reported for `Cc1nc(Nc2ncc(-c3ccccc3)s2)cc(C2CCN(C(=O)C(C)(C)N)CC2)n1` ?
> 10 nM
